assay_method_text: qHTS assay to identify small molecule antagonists of the thyroid receptor (TR) signaling pathway - cell viability counter screen (AID 743064); note: nearly all actives have a fitted effect of over 50% in size
experimental_conditions: GH3.TRE-Luc viability, CellTiter-Fluor, 24 h; series mostly up to 70.3 µM
Inconclusive results are not listed. Activity calls are given as the source filed them. Calls come from the whole dose curve; as a rule, active = well fitted cell-killing curve with a large enough effect in the repeat runs; inconclusive = weak or mixed curves, or effect the other way; inactive = no such curve, though single readings can be large or run the other way.
# output must be one of yes = active, no = inactive

Lookup: Outcome? `O=C(c1ccc(O)cc1O)c1ccc(O)cc1O`
Found: no

Lookup: For this molecule, state the assay outcome: `C=CC(=O)OCC(CO)(COCC(COC(=O)C=C)(COC(=O)C=C)COC(=O)C=C)COC(=O)C=C`
Found: yes

Lookup: Look up the recorded call for Cc1nc(-c2ccc3c(c2)CCN(CCC2CCC(NC(=O)/C=C/c4ccc(F)cc4)CC2)CC3)no1 (stereo not given) in this test.
Found: yes

Lookup: // outcome(item) with item = `O=c1cccccc1O`
Found: yes

Lookup: Recorded test outcome, item `CC/C(=C(\c1ccc(O)cc1)c1ccc(OCCN(C)C)cc1)c1ccccc1`
Found: yes

The values you see were collected from PubChem BioAssay (Tox21).
